measured_attribute: IC50 (µM)
Respond with the bare value in µM.

Assay Voltage-gated inwardly rectifying potassium channel KCNH2 (Homo sapiens, UniProt Q12809), sample `Cc1cnc(NC(=O)c2cc(Oc3ccc(C#N)cc3)c3cc(C)oc3c2)cn1` , IC50 read: 4

Assay Voltage-gated inwardly rectifying potassium channel KCNH2 (Homo sapiens, UniProt Q12809), sample `Cc1cnc(NC(=O)c2cc(Oc3ccc(S(C)(=O)=O)cc3)c3cc(C)oc3c2)cn1` , IC50 read: 22

###

# procedure_summary: Kinetic solubility of the compound
# Assay type: physicochemical
# test_conditions: read-out: Kinetic_solubility
Please go through the items and note down their solubility kinetic.
Respond with the bare value in µM.

For record `COc1cnc(NC(=O)c2cc(Oc3cnc(C(=O)N(C)C)cn3)c3cc(C)oc3c2)cn1` the listed solubility kinetic is 25

For record Cc1cnc(NC(=O)c2cc(Oc3cnc(C(=O)N(C)C)nc3)c3cc(C)oc3c2)cn1 [NERIGLIATIN] the listed solubility kinetic is 463

For record `Cc1cnc(NC(=O)c2cc(Oc3cnc(C(=O)N4CCCCC4)cn3)c3cc(C)oc3c2)cn1` the listed solubility kinetic is 24

For record `Cc1cc2c(Oc3cnc(C(=O)N(C)C)cn3)cc(C(=O)Nc3cnccn3)cc2o1` the listed solubility kinetic is 30

For record `CCN(C)C(=O)c1cnc(Oc2cc(C(=O)Nc3cnc(C)cn3)cc3oc(C)cc23)cn1` the listed solubility kinetic is 344

For record `Cc1cc2c(Oc3cnc(C(=O)N(C)C)cn3)cc(C(=O)Nc3cnc(C(F)(F)F)cn3)cc2o1` the listed solubility kinetic is 6

For record `CCc1cnc(NC(=O)c2cc(Oc3cnc(C(=O)N(C)C)cn3)c3cc(C)oc3c2)cn1` the listed solubility kinetic is 117

For record `Cc1cc2c(Oc3cnc(C(=O)N4CC(C)C4)cn3)cc(C(=O)Nc3cnccn3)cc2o1` the listed solubility kinetic is 49

For record `Cc1cnc(NC(=O)c2cc(Oc3ccc(C(=O)N(C)C)nc3)c3cc(C)oc3c2)cn1` the listed solubility kinetic is 418
